meta.source: ChEMBL document CHEMBL1145881

This section presents molecules with their documented pIC50 values.
Target: Geranylgeranyl transferase type I (Homo sapiens, UniProt P49354+P53609)
Assay: In vitro inhibitory activity against Geranylgeranyl transferase type I
Assay type: protein-complex assay
Quick note: pIC50 values are minus log10 of concentrations in mol/L.

Give pIC50 (Geranylgeranyl transferase type I (Homo sapiens, UniProt P49354+P53609)) of the following molecule: Cn1cncc1C(OCc1c(-c2cccc(Cl)c2Cl)cc(C#N)c(=O)n1C)c1ccc(C#N)cc1 (centres undefined)
5.60

Give pIC50 (Geranylgeranyl transferase type I (Homo sapiens, UniProt P49354+P53609)) of the following molecule: Cn1cncc1C(OCc1c(-c2ccc3c(c2)OC(F)(F)O3)cc(C#N)c(=O)n1C)c1ccc(C#N)cc1 (centres undefined)
5.21

Give pIC50 (Geranylgeranyl transferase type I (Homo sapiens, UniProt P49354+P53609)) of the following molecule: Cn1cncc1C(OCc1c(-c2cc(F)cc(F)c2)cc(C#N)c(=O)n1C)c1ccc(C#N)cc1 (centres undefined)
4.92

Give pIC50 (Geranylgeranyl transferase type I (Homo sapiens, UniProt P49354+P53609)) of the following molecule: Cn1cncc1C(OCc1c(-c2cccc(F)c2F)cc(C#N)c(=O)n1C)c1ccc(C#N)cc1 (centres undefined)
5.47

Give pIC50 (Geranylgeranyl transferase type I (Homo sapiens, UniProt P49354+P53609)) of the following molecule: Cn1cncc1C(OCc1c(-c2cccc(Br)c2)cc(C#N)c(=O)n1C)c1ccc(C#N)cc1 (centres undefined)
5.47

Give pIC50 (Geranylgeranyl transferase type I (Homo sapiens, UniProt P49354+P53609)) of the following molecule: Cn1cncc1C(OCc1[nH]c(=O)c(C#N)cc1-c1cccc(Cl)c1)c1ccc(C#N)cc1 (centres undefined)
6.09

Give pIC50 (Geranylgeranyl transferase type I (Homo sapiens, UniProt P49354+P53609)) of the following molecule: Cn1cncc1C(OCc1c(-c2ccc(Cl)c(Cl)c2)cc(C#N)c(=O)n1C)c1ccc(C#N)cc1 (centres undefined)
5.64

Give pIC50 (Geranylgeranyl transferase type I (Homo sapiens, UniProt P49354+P53609)) of the following molecule: Cn1cncc1C(OCc1c(-c2ccc(OC(F)(F)F)cc2)cc(C#N)c(=O)n1C)c1ccc(C#N)c(-c2ccc(Cl)cc2)c1 (centres undefined)
6.80

Give pIC50 (Geranylgeranyl transferase type I (Homo sapiens, UniProt P49354+P53609)) of the following molecule: Cn1cncc1C(OCc1c(-c2cc(Cl)cc(Cl)c2)cc(C#N)c(=O)n1C)c1ccc(C#N)c(-c2cccc(Cl)c2)c1 (centres undefined)
6.92

Give pIC50 (Geranylgeranyl transferase type I (Homo sapiens, UniProt P49354+P53609)) of the following molecule: Cn1cncc1C(OCc1c(-c2cc(Cl)cc(Cl)c2)cc(C#N)c(=O)n1C)c1ccc(C#N)c(Cl)c1 (centres undefined)
6.72

***
Give pIC50 (Geranylgeranyl transferase type I (Homo sapiens, UniProt P49354+P53609)) of the following molecule: Cn1cncc1C(OCc1c(-c2cc(Cl)cc(Cl)c2)cc(C#N)c(=O)n1C)c1ccc(C#N)c(Br)c1 (centres undefined)
6.54

Give pIC50 (Geranylgeranyl transferase type I (Homo sapiens, UniProt P49354+P53609)) of the following molecule: Cn1cncc1C(OCc1c(-c2ccc(F)c(Cl)c2)cc(C#N)c(=O)n1C)c1ccc(C#N)cc1 (centres undefined)
5.72

Give pIC50 (Geranylgeranyl transferase type I (Homo sapiens, UniProt P49354+P53609)) of the following molecule: Cn1cncc1C(OCc1c(-c2cc(F)ccc2F)cc(C#N)c(=O)n1C)c1ccc(C#N)cc1 (centres undefined)
4.82

Give pIC50 (Geranylgeranyl transferase type I (Homo sapiens, UniProt P49354+P53609)) of the following molecule: Cn1cncc1C(OCc1c(-c2ccc(OC(F)(F)F)cc2)cc(C#N)c(=O)n1C)c1ccc(C#N)cc1 (centres undefined)
5.85

Give pIC50 (Geranylgeranyl transferase type I (Homo sapiens, UniProt P49354+P53609)) of the following molecule: Cn1cncc1C(OCc1c(-c2ccc(OC(F)(F)F)cc2)cc(C#N)c(=O)n1C)c1ccc(C#N)c(Br)c1 (centres undefined)
6.66

Give pIC50 (Geranylgeranyl transferase type I (Homo sapiens, UniProt P49354+P53609)) of the following molecule: Cn1cncc1C(OCc1c(-c2cccc(Cl)c2)cc(C#N)c(=O)n1C)c1ccc(C#N)c(-c2cccc(Cl)c2)c1 (centres undefined)
7.03

Give pIC50 (Geranylgeranyl transferase type I (Homo sapiens, UniProt P49354+P53609)) of the following molecule: Cn1cncc1C(OCc1c(-c2cc(Cl)ccc2Cl)cc(C#N)c(=O)n1C)c1ccc(C#N)cc1 (centres undefined)
5.54

Give pIC50 (Geranylgeranyl transferase type I (Homo sapiens, UniProt P49354+P53609)) of the following molecule: Cn1cncc1C(OCc1c(-c2ccc(F)cc2F)cc(C#N)c(=O)n1C)c1ccc(C#N)cc1 (centres undefined)
5.37

Give pIC50 (Geranylgeranyl transferase type I (Homo sapiens, UniProt P49354+P53609)) of the following molecule: Cn1cncc1C(OCc1c(-c2ccc(OC(F)(F)F)cc2)cc(C#N)c(=O)n1C)c1ccc(C#N)c(Cl)c1 (centres undefined)
6.82

Give pIC50 (Geranylgeranyl transferase type I (Homo sapiens, UniProt P49354+P53609)) of the following molecule: Cn1cncc1C(OCc1c(-c2cccc(Cl)c2)cc(C#N)c(=O)n1CC1CC1)c1ccc(C#N)cc1 (centres undefined)
5.70

Give pIC50 (Geranylgeranyl transferase type I (Homo sapiens, UniProt P49354+P53609)) of the following molecule: CCCn1c(COC(c2ccc(C#N)cc2)c2cncn2C)c(-c2cccc(Cl)c2)cc(C#N)c1=O (centres undefined)
5.52

Give pIC50 (Geranylgeranyl transferase type I (Homo sapiens, UniProt P49354+P53609)) of the following molecule: CCOc1cccc(-c2cc(C#N)c(=O)n(C)c2COC(c2ccc(C#N)cc2)c2cncn2C)c1 (centres undefined)
5.82

Give pIC50 (Geranylgeranyl transferase type I (Homo sapiens, UniProt P49354+P53609)) of the following molecule: Cn1cncc1C(OCc1c(-c2cccc(OC(F)(F)F)c2)cc(C#N)c(=O)n1C)c1ccc(C#N)cc1 (centres undefined)
5.98

Give pIC50 (Geranylgeranyl transferase type I (Homo sapiens, UniProt P49354+P53609)) of the following molecule: Cn1cncc1C(OCc1c(-c2ccc3c(c2)OCO3)cc(C#N)c(=O)n1C)c1ccc(C#N)cc1 (centres undefined)
5.48

Give pIC50 (Geranylgeranyl transferase type I (Homo sapiens, UniProt P49354+P53609)) of the following molecule: Cn1cncc1C(OCc1c(-c2cc(Cl)cc(Cl)c2)cc(C#N)c(=O)n1C)c1ccc(C#N)c(I)c1 (centres undefined)
5.12

Give pIC50 (Geranylgeranyl transferase type I (Homo sapiens, UniProt P49354+P53609)) of the following molecule: Cn1cncc1C(OCc1c(-c2ccc(OC(F)(F)F)cc2)cc(C#N)c(=O)n1C)c1ccc(C#N)c(-c2cccc(Cl)c2)c1 (centres undefined)
7.52

Give pIC50 (Geranylgeranyl transferase type I (Homo sapiens, UniProt P49354+P53609)) of the following molecule: Cn1cncc1C(OCc1c(-c2ccc(F)c(F)c2)cc(C#N)c(=O)n1C)c1ccc(C#N)cc1 (centres undefined)
5.26

====

This section presents compounds with their documented pIC50 values.
Molecular target: Protein farnesyltransferase (Homo sapiens, UniProt P49354+P49356)
Test: In vitro inhibitory activity against farnesyltransferase (FT)
Quick note: pIC50 values are minus log10 of concentrations in mol/L.

# get_value(readout='pIC50', item= Cn1cncc1C(OCc1c(-c2ccc(F)c(Cl)c2)cc(C#N)c(=O)n1C)c1ccc(C#N)cc1 (configuration not stated) )
8.96

***
# get_value(readout='pIC50', item= Cn1cncc1C(OCc1c(-c2ccc3c(c2)OCO3)cc(C#N)c(=O)n1C)c1ccc(C#N)cc1 (configuration not stated) )
9.38

# get_value(readout='pIC50', item= Cn1cncc1C(OCc1c(-c2ccc(OC(F)(F)F)cc2)cc(C#N)c(=O)n1C)c1ccc(C#N)c(-c2ccccc2Cl)c1 (configuration not stated) )
8.41

# get_value(readout='pIC50', item= CCCn1c(COC(c2ccc(C#N)cc2)c2cncn2C)c(-c2cccc(Cl)c2)cc(C#N)c1=O (configuration not stated) )
10.44

# get_value(readout='pIC50', item= Cn1cncc1C(OCc1c(-c2cccc(Cl)c2F)cc(C#N)c(=O)n1C)c1ccc(C#N)cc1 (configuration not stated) )
8.74

# get_value(readout='pIC50', item= Cn1cncc1C(OCc1c(-c2cccc(Cl)c2)cc(C#N)c(=O)n1C)c1ccc(C#N)c(I)c1 (configuration not stated) )
9.12

====

Molecular target: Protein farnesyltransferase (Homo sapiens, UniProt P49354+P49356)
Experiment: In vitro effective concentration against farnesyltransferase (FT)
Type: protein-complex assay
This section presents compounds with their documented pEC50 values.
Quick note: pEC50 values are minus log10 of concentrations in mol/L.

# get_value(readout='pEC50', item= Cn1cncc1C(OCc1c(-c2cc(F)cc(F)c2)cc(C#N)c(=O)n1C)c1ccc(C#N)cc1 (stereo not given) )
8.14

# get_value(readout='pEC50', item= Cn1cncc1C(OCc1ccc(C#N)cn1)c1ccc(C#N)c(-c2cccc3ccccc23)c1 (stereo not given) )
8.23

# get_value(readout='pEC50', item= Cn1cncc1C(OCc1c(-c2cccc(Cl)c2F)cc(C#N)c(=O)n1C)c1ccc(C#N)cc1 (stereo not given) )
7.62

# get_value(readout='pEC50', item= Cn1cncc1C(OCc1c(-c2cccc(Cl)c2)cc(C#N)c(=O)n1C)c1ccc(C#N)c(Br)c1 (stereo not given) )
7.41

# get_value(readout='pEC50', item= Cn1cncc1C(OCc1c(-c2cccc(F)c2)cc(C#N)c(=O)n1C)c1ccc(C#N)cc1 (stereo not given) )
7.96

# get_value(readout='pEC50', item= Cn1cncc1C(OCc1c(-c2ccc(OC(F)(F)F)cc2)cc(C#N)c(=O)n1C)c1ccc(C#N)c(Cl)c1 (stereo not given) )
7.82

***
# get_value(readout='pEC50', item= Cn1cncc1C(OCc1c(-c2ccc(F)c(Cl)c2)cc(C#N)c(=O)n1C)c1ccc(C#N)cc1 (stereo not given) )
7.82

# get_value(readout='pEC50', item= Cn1cncc1C(OCc1c(-c2ccc(OC(F)(F)F)cc2)cc(C#N)c(=O)n1C)c1ccc(C#N)cc1 (stereo not given) )
8.41

# get_value(readout='pEC50', item= Cn1cncc1C(OCc1c(-c2ccc3c(c2)OCO3)cc(C#N)c(=O)n1C)c1ccc(C#N)cc1 (stereo not given) )
8.68
